- TEST DESCRIPTION: self-splicing fitness, log relative to wild type (ln ratio); higher = more splicing; Tetrahymena group I intron in knt gene, E. coli kanamycin selection, DiMSum; sequences stand for … in CUCUCU…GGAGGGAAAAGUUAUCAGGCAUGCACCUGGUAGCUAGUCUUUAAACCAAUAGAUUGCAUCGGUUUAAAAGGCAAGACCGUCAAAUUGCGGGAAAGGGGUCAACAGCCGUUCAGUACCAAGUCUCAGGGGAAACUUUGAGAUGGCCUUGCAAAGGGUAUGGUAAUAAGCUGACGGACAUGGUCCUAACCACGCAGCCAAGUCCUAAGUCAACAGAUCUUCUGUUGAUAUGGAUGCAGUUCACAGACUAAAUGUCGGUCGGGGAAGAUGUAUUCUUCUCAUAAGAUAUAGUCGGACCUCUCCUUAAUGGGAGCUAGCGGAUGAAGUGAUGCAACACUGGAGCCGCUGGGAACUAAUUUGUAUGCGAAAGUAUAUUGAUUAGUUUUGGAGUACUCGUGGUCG;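 note: selection with 25 µg/mL kanamycin versus none on LB agar overnight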
- MEASUREMENT PARAMETERS: 37 °C
Consider the following sequences; for each one, report its self-splicing fitness (ln).
Would you mind answering with just the numeric figure?

What measured self-splicing fitness (ln) goes with CGAAAGCAAUAUUACGGACU ?
0.357

What measured self-splicing fitness (ln) goes with UGCUAGCAAUAUUACGUUCU ?
-0.861

What measured self-splicing fitness (ln) goes with AGUUAGCAAUAUUACGCGCU ?
-2.4

What measured self-splicing fitness (ln) goes with UAUUAGCAAUAUUACGCUGG ?
-0.655

What measured self-splicing fitness (ln) goes with AAGCAGCAAUAUUACGAUUU ?
0.619

What measured self-splicing fitness (ln) goes with UUUCAGCAAUAUUACGGUGC ?
-3.4

What measured self-splicing fitness (ln) goes with CUAUAGCAAUAUUACGAUGU ?
-3.04

What measured self-splicing fitness (ln) goes with GAAUAGCAAUAUUACGACAU ?
0.00512

What measured self-splicing fitness (ln) goes with AACGAGCAAUAUUACGUUAU ?
-1.52

What measured self-splicing fitness (ln) goes with ACGCAGCAAUAUUACGUCUU ?
-1.27

What measured self-splicing fitness (ln) goes with ACCGAGCAAUAUUACGGGGU ?
-2.46

What measured self-splicing fitness (ln) goes with GGCCAGCAAUAUUACGUGCU ?
-2.52

What measured self-splicing fitness (ln) goes with GCGCAGCAAUAUUACGGUGG ?
-0.842

What measured self-splicing fitness (ln) goes with AUGUAGCAAUAUUACGUCAU ?
-0.896

What measured self-splicing fitness (ln) goes with AUUGAGCAAUAUUACGUGAC ?
-1.61

What measured self-splicing fitness (ln) goes with UAGCAGCAAUAUUACGCACG ?
-0.318

What measured self-splicing fitness (ln) goes with GUUAAGCAAUAUUACGUUGG ?
-1.19

What measured self-splicing fitness (ln) goes with UACAAGCAAUAUUACGUUCG ?
0.321

What measured self-splicing fitness (ln) goes with UUCUAGCAAUAUUACGUUCU ?
-1.26

What measured self-splicing fitness (ln) goes with UGAUAGCAAUAUUACGGUGU ?
-3.09

What measured self-splicing fitness (ln) goes with CGCGAGCAAUAUUACGACGU ?
-1.08

What measured self-splicing fitness (ln) goes with ACAGAGCAAUAUUACGCGUA ?
-2.91

What measured self-splicing fitness (ln) goes with UGACAGCAAUAUUACGGCAC ?
-2.23

What measured self-splicing fitness (ln) goes with UUACAGCAAUAUUACGUAUC ?
-3.28

What measured self-splicing fitness (ln) goes with CUUCAGCAAUAUUACGGGGA ?
-1.65

What measured self-splicing fitness (ln) goes with AUUUAGCAAUAUUACGCUGU ?
-1.01

What measured self-splicing fitness (ln) goes with UACCAGCAAUAUUACGUAUG ?
-1.58

What measured self-splicing fitness (ln) goes with AAAUAGCAAUAUUACGCGGA ?
-0.348

What measured self-splicing fitness (ln) goes with UCUCAGCAAUAUUACGAUUA ?
-0.539

What measured self-splicing fitness (ln) goes with CGGCAGCAAUAUUACGUGGC ?
-2.02

What measured self-splicing fitness (ln) goes with UGAUAGCAAUAUUACGACAA ?
-2.07

What measured self-splicing fitness (ln) goes with AUACAGCAAUAUUACGGUAC ?
-2.2

What measured self-splicing fitness (ln) goes with GAGAAGCAAUAUUACGGUAU ?
-1.79

What measured self-splicing fitness (ln) goes with AAUCAGCAAUAUUACGAUAC ?
-0.307

What measured self-splicing fitness (ln) goes with GGAGAGCAAUAUUACGGGUU ?
-2.46

What measured self-splicing fitness (ln) goes with AGCUAGCAAUAUUACGCGAA ?
-1.24

What measured self-splicing fitness (ln) goes with UCGUAGCAAUAUUACGAGUU ?
-2.5

What measured self-splicing fitness (ln) goes with ACGUAGCAAUAUUACGAAUA ?
-1.46

What measured self-splicing fitness (ln) goes with GCAUAGCAAUAUUACGUCAC ?
-2.08

What measured self-splicing fitness (ln) goes with CCCCAGCAAUAUUACGGUCA ?
-0.931

What measured self-splicing fitness (ln) goes with CAUUAGCAAUAUUACGAUUA ?
-0.981

What measured self-splicing fitness (ln) goes with ACUCAGCAAUAUUACGCUAU ?
-0.569

What measured self-splicing fitness (ln) goes with CUAAAGCAAUAUUACGAGGG ?
-2.22

What measured self-splicing fitness (ln) goes with AUAGAGCAAUAUUACGACAA ?
-0.291

What measured self-splicing fitness (ln) goes with UGUAAGCAAUAUUACGGGCA ?
0.521

What measured self-splicing fitness (ln) goes with CUACAGCAAUAUUACGAGAA ?
-1.92

What measured self-splicing fitness (ln) goes with GUGGAGCAAUAUUACGAAGU ?
-1.66

What measured self-splicing fitness (ln) goes with AACUAGCAAUAUUACGCGUG ?
-0.485

What measured self-splicing fitness (ln) goes with AUGUAGCAAUAUUACGUGGC ?
-2.84

What measured self-splicing fitness (ln) goes with CCUAAGCAAUAUUACGAUUU ?
-0.794

What measured self-splicing fitness (ln) goes with AAUUAGCAAUAUUACGUCAU ?
-1.7

What measured self-splicing fitness (ln) goes with AAGAAGCAAUAUUACGCUUG ?
-0.951

What measured self-splicing fitness (ln) goes with AUAAAGCAAUAUUACGCACU ?
0.662

What measured self-splicing fitness (ln) goes with UCGCAGCAAUAUUACGGUUA ?
-0.398

What measured self-splicing fitness (ln) goes with CUAUAGCAAUAUUACGUCCU ?
-2.7

What measured self-splicing fitness (ln) goes with GAUGAGCAAUAUUACGGUAG ?
-2.2

What measured self-splicing fitness (ln) goes with CGUUAGCAAUAUUACGGGUG ?
0.0881

What measured self-splicing fitness (ln) goes with GGUCAGCAAUAUUACGGACG ?
0.0247

What measured self-splicing fitness (ln) goes with GGAGAGCAAUAUUACGAGGU ?
-3.01

What measured self-splicing fitness (ln) goes with GUGUAGCAAUAUUACGAGAU ?
-1.23

What measured self-splicing fitness (ln) goes with GAAGAGCAAUAUUACGAAGU ?
-2.85

What measured self-splicing fitness (ln) goes with ACCAAGCAAUAUUACGUCCU ?
0.0592

What measured self-splicing fitness (ln) goes with AGAGAGCAAUAUUACGAAUA ?
-0.719

What measured self-splicing fitness (ln) goes with ACGUAGCAAUAUUACGGGAC ?
-1.45

What measured self-splicing fitness (ln) goes with UCUCAGCAAUAUUACGUUUC ?
-1.97

What measured self-splicing fitness (ln) goes with UAGAAGCAAUAUUACGUCAG ?
-0.0756

What measured self-splicing fitness (ln) goes with GAAAAGCAAUAUUACGGUCU ?
-0.398
